Provide the reported log10 IC50 of each item.
Protein target, amino acids: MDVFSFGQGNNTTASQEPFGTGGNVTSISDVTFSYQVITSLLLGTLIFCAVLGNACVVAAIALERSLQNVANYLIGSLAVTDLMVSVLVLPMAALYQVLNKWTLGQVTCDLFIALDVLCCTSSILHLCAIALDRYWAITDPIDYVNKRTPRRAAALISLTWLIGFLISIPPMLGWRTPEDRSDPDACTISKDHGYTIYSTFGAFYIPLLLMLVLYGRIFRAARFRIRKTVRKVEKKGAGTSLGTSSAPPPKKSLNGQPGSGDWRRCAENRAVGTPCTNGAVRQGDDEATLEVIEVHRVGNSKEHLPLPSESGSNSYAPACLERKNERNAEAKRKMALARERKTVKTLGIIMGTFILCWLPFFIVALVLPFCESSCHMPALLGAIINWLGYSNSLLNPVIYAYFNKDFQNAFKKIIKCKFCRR
Structures can show the parent of a compound that is named as a salt.
Annotation: log10 of IC50, µM basis.

Below: 8 molecules and their reported log10 IC50.
# molecule, reported-measurement
measured = [
    ("COc1ccccc1N1CCN(CCOc2ccc(-c3cn4ccsc4n3)cc2)CC1.Cl.Cl.Cl [Compound 4510470, trihydrochloride]", -1.42),
    ("COc1ccccc1N1CCN(CCCOc2ccc(-c3cn4ccsc4n3)cc2)CC1", -1.02),
    ("COc1ccccc1N1CCN(CCCCOc2ccc(-c3cn4ccsc4n3)cc2)CC1.Cl.Cl.Cl [Compound 4510916, trihydrochloride]", -2.10),
    ("COc1ccccc1N1CCN(CCCCOc2ccc(-c3cn4c(n3)SCC4)cc2)CC1", -2.05),
    ("COc1ccccc1N1CCN(CCCOc2ccc(-c3cn4ccccc4n3)cc2)CC1", -0.69),
    ("COc1ccccc1N1CCN(CCCOc2ccc(-c3cc4ccccn4c3)cc2)CC1.Cl.Cl [Compound 4510423, dihydrochloride]", 0.00),
    ("COc1ccccc1N1CCN(CCOc2ccc(-c3cc4ccccn4c3)cc2)CC1.Cl.Cl [Compound 4510407, dihydrochloride]", -0.10),
    ("COc1ccccc1N1CCN(CCCOc2ccc(-c3cn4cccnc4n3)cc2)CC1", -1.18),
]

Return reported log10 IC50 values for all items listed beneath this line.
1. COc1ccccc1N1CCN(CCCCOc2ccc(-c3cc4ccccn4c3)cc2)CC1
2. COc1ccccc1N1CCN(CCOc2ccc(-c3cn4c(n3)SCC4)cc2)CC1 [Compound 4510471, trihydrochloride]
3. COc1ccccc1N1CCN(CCCCOc2ccc(-c3cn4ccccc4n3)cc2)CC1

*A*
1: -0.61; 2: -1.54; 3: -1.68
